# measured_target: Ubiquitin-activating enzyme e1, putative (Leishmania donovani (strain BPK282A1))
# Sequence (whole entry): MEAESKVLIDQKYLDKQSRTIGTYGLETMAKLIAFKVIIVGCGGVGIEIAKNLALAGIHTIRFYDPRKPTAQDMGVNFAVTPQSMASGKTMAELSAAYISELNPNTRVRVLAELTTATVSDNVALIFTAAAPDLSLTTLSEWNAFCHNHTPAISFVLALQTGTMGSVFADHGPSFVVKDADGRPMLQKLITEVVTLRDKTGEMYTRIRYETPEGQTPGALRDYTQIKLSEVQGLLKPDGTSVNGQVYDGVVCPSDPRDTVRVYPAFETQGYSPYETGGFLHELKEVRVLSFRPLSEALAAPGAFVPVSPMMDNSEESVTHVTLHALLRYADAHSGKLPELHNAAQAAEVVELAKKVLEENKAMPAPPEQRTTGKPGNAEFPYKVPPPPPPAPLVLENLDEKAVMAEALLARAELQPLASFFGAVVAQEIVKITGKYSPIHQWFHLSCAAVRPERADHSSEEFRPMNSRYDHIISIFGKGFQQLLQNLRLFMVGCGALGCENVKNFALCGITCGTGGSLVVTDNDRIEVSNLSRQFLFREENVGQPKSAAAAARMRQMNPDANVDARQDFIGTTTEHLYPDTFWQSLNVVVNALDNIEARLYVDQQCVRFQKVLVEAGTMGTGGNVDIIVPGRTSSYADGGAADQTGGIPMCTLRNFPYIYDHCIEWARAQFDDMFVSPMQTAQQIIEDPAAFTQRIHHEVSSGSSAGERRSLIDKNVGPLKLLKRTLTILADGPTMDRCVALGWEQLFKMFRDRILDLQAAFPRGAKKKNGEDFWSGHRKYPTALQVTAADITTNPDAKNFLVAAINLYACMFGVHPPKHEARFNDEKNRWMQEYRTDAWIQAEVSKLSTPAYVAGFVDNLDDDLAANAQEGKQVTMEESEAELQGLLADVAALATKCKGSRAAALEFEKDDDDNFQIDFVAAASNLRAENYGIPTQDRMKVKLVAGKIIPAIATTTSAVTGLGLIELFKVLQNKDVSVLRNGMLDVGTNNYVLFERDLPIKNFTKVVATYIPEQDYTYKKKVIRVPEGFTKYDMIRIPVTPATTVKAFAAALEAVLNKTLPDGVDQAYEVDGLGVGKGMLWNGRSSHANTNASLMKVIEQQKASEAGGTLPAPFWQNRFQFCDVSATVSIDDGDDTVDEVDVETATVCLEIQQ
# experimental_details: Leishmania donovani Ubiquitin Activating Enzyme (LdE1)
# Assay type: functional
# Parameters: scale not given: direction of the effect not stated beside the values
# assay_setup: 30 µM
Results with a measured potency or affinity are listed apart.
Assign Percent Effect to each entry below.
Report field: quantity (unit follows the number).

// query Give the reported Percent Effect for this molecule. CC(C)c1ncc(CN2C[C@@H](CN3CCC(CO)CC3)[C@@H](CO)C2)cn1
// result 8%

// query Give the reported Percent Effect for this molecule. COc1ccccc1C(=O)N1Cc2cc(C)ccc2OCC1CN(C)C (stereo not given)
// result 6.76%

// query Give the reported Percent Effect for this molecule. CC(O)CN1CCN(C(=O)c2ccc(Cn3cccn3)cc2)CC1 (stereo not given)
// result 18.9%

// query Give the reported Percent Effect for this molecule. Cn1ncc2c(=O)[nH]c(CN3CCCC3Cc3ccccc3)nc21 (stereo not given)
// result 15.8%

// query Give the reported Percent Effect for this molecule. O=C(c1n[nH]c2ccccc12)N1CCCC1c1noc(C2CC2)n1 (stereo not given)
// result 7.59%

Reference source: ChEMBL document CHEMBL3988442
